Molecular target: Sentrin-specific protease 7 (Homo sapiens) (UniProt Q9BQF6)
Experiment: SENP7 protease inhibitors, primary screen, biochemical, luminescence, uHTS (AID 434973);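 note: plate controls were DMSO with enzyme for no effect and no enzyme buffer wells for full effect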
Conditions: recombinant SENP7, Z-RLRGG-aminoluciferin luminescence, 40 min; at 5 µM; active compounds read high
Hit rate of the full screen: of about 330,000 compounds, about 4,900 (1.5%) were called active. The entries come from a sample that favours actives as a whole.
property.name: inhibition (%)
State just the number; it will be interpreted in %.

Answered cases to consult:
# molecule, inhibition / %
rows = [
    ("COc1ccc(C(=O)NC2CCN(C(=O)Nc3ccc(F)cc3)CC2)cc1", -1.37),
    ("O=C(Nc1ccccc1-c1nc2ccccc2[nH]c1=O)c1cccs1", -0.595),
]

Q. Entry "CN(CC(=O)Nc1ccc(F)cc1)CC(=O)N1CCCCC1" has what inhibition?
A. 4.6

Q. Entry "O=C(CN1CCN(c2ccccc2F)CC1)c1ccc2c(c1)OCO2" has what inhibition?
A. 8.23

Q. Entry "CC(=O)c1sc(N/N=C/c2ccc(C(C)C)cc2)nc1C" has what inhibition?
A. 0.0938

* * *

Molecular target: Sentrin-specific protease 7 (Homo sapiens)
Assay: SENP7 protease inhibitors, primary screen, biochemical, luminescence, uHTS (AID 434973)
Conditions: recombinant SENP7, Z-RLRGG-aminoluciferin luminescence, 40 min; at 5 µM
About 4,900 (1.5%) of roughly 330,000 compounds were called active.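 The calls were made as follows: active = inhibition above about 50% at the single test dose (limit read from the data); inactive = the rest.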 Many of the other results were omitted from the sample, so actives are more common in it than they were.
Hi there, use one of these labels in your reply, thanks! yes (1) (active), no (0) (inactive)

# compound, target.under.test, assigned.category
records = [
    ("COc1ccc(-c2csc(Cc3nc(O)cs3)n2)cc1", "Sentrin-specific protease 7 (Homo sapiens)", "no (0)"),
    ("CCCCCc1ccc(-c2cn(Cc3ccc4ccccc4c3)nn2)cc1", "Sentrin-specific protease 7 (Homo sapiens)", "no (0)"),
    ("Cc1nn(-c2ccccc2)c2c1c(C)c(CCC(=O)NCC1CCCO1)c(=O)n2C (stereo unspecified)", "Sentrin-specific protease 7 (Homo sapiens)", "no (0)"),
    ("Cc1cc(=O)oc2c(C)c(OCC(=O)NCCc3ccc(S(N)(=O)=O)cc3)ccc12", "Sentrin-specific protease 7 (Homo sapiens)", "no (0)"),
    ("Cc1ccc(Nc2nnc(SC(C)C(=O)NC3CC3)s2)cc1 (stereo unspecified)", "Sentrin-specific protease 7 (Homo sapiens)", "no (0)"),
]

Q. Fill in: this test's call for "C1=C(CCNc2ncnc3c2cnn3-c2ccccc2)CCCC1" is ___
A. yes (1)

Q. Fill in: this test's call for "O=C(O)/C=C/c1ccc2c(c1)OCCO2" is ___
A. no (0)

Q. Fill in: this test's call for COc1ccc(C(C)NC(=O)C2CCCC2)cc1 (stereo unspecified) is ___
A. no (0)

Q. Fill in: this test's call for COc1ccc2c(c1OC)C(=O)OC2Nc1nc(-c2ccccc2)cs1 (stereo unspecified) is ___
A. no (0)

Q. Fill in: this test's call for "Cc1[nH]n(-c2ccc([N+](=O)[O-])cc2)c(=O)c1C=NCCN1CCN(C(=O)c2ccccc2F)CC1" is ___
A. yes (1)

Q. Fill in: this test's call for "CC(=O)Nc1ccc(C(=O)Nc2cccc(S(=O)(=O)NC3=NCCC3)c2)cc1" is ___
A. no (0)

* * *

Molecular target: Sentrin-specific protease 7 (Homo sapiens)
Test: SENP7 protease inhibitors, primary screen, biochemical, luminescence, uHTS (AID 434973)
Conditions: recombinant SENP7, Z-RLRGG-aminoluciferin luminescence, 40 min; at 5 µM; active compounds read high
About 4,900 (1.5%) of roughly 330,000 compounds were called active. For the sample, actives were picked, then their nearest neighbours and some compounds at random.
property.name: inhibition (%)
State just the number; it will be interpreted in %.

# smiles.data, target.under.test, result
rows = [
    ("COC(=O)c1ccc(S(=O)(=O)N(CCO)Cc2ccccc2)n1C", "Sentrin-specific protease 7 (Homo sapiens)", 1.52),
]

Q. Entry "Fc1ccccc1/C=N/Nc1cc(N2CCCCC2)ncn1" has what inhibition?
A. 69.8

Q. Entry "O=C(COC(=O)/C=C/c1cccs1)NC1CCCCC1" has what inhibition?
A. 6.28

Q. Entry "COc1cc(C(=O)NCc2nnc(SCC(=O)Nc3nc4ccc(C)cc4s3)o2)cc(OC)c1OC" has what inhibition?
A. 3.97

Q. Entry "Cc1ccnc(NC(=O)Cn2ccc([N+](=O)[O-])n2)c1" has what inhibition?
A. 10

Q. Entry "Cc1ccc(NC(=O)NC(=O)c2ccccc2)cc1F" has what inhibition?
A. 23.1

* * *

Target: Sentrin-specific protease 7 (Homo sapiens)
Assay: SENP7 protease inhibitors, primary screen, biochemical, luminescence, uHTS (AID 434973);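 note: plate controls were DMSO with enzyme for no effect and no enzyme buffer wells for full effect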
Settings: recombinant SENP7, Z-RLRGG-aminoluciferin luminescence, 40 min; at 5 µM; active compounds read high
Out of some 330,000 compounds screened, about 4,900 (1.5%) were called active. Many of the other results were omitted from the sample, so actives are more common in it than they were.
inhibition reference
State just the number; it will be interpreted in %.

Answered cases to consult:
# smiles.data, inhibition, %
records = [
    ("O=C(O[C@H]1[C@H](Cc2ccccc2)NS(=O)(=O)[C@H]2C[C@@H]3C=C[C@]12O3)c1ccc([N+](=O)[O-])cc1", 7.73),
    ("CCC(=NC1CC(C)(C)NC(C)(C)C1)C1=C(O)CC(C)(C)CC1=O", -2.04),
    ("Cc1c(NC(=S)NC(=O)CCc2ccccc2)c(=O)n(-c2ccccc2)n1C", -7.18),
    ("CC(=O)Oc1ccc(-c2nc3c(C)cccc3c(=O)o2)cc1", -7.63),
    ("CC(=O)Oc1ccc2c(=O)oc(-c3ccc([N+](=O)[O-])cc3)nc2c1", 97.5),
    ("Oc1ccc(N=Nc2nccs2)c(O)c1", 74.3),
]

Q. Entry "COc1cc(C(=O)N2CCN(C)CC2)cc(OC)c1OC" has what inhibition?
A. -4.77

Q. Entry "CC(C)c1ccc(S(=O)(=O)N2CCC3(CC2)OCCO3)cc1" has what inhibition?
A. 3.85

Q. Entry "COCCN1CCn2c(nc3cc(NS(C)(=O)=O)ccc32)C1" has what inhibition?
A. 3.45

Q. Entry "CSC1=N/C(=C\C=C\c2cccs2)C(=O)S1" has what inhibition?
A. 43.7

Q. Entry "CC(=O)Nc1ccc(S(=O)(=O)N2CCC(C(=O)N[C@@H](Cc3ccccc3)C(=O)O)CC2)cc1" has what inhibition?
A. -6.11

* * *

Target: Sentrin-specific protease 7 (Homo sapiens) (UniProt Q9BQF6)
Assay: SENP7 protease inhibitors, primary screen, biochemical, luminescence, uHTS (AID 434973);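 note: plate controls were DMSO with enzyme for no effect and no enzyme buffer wells for full effect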
Details: recombinant SENP7, Z-RLRGG-aminoluciferin luminescence, 40 min; at 5 µM
Screen size: about 330,000 compounds; about 4,900 (1.5%) were called active.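 Rule for the calls: active = inhibition above about 50% at the single test dose (limit read from the data); inactive = the rest.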 The sample holds actives, similar compounds and a random draw of the others, so the mix is not that of the screen.
Hi there, use one of these labels in your reply, thanks! Yes (active), No (inactive)

Would you please look over these solved cases?
# compound, assigned.category
rows = [
    ("CC(C)n1cnc2c(NCc3ccccc3)cc(OCC3CCN(C)CC3)cc21", "Yes"),
    ("Cc1ccccc1Nc1c([N+](=O)[O-])ccc2nonc12", "No"),
    ("CCC(CO)Oc1cc(NCc2ccccc2)c2ncn(C3CCCC3)c2c1 (stereo unspecified)", "No"),
    ("Cn1ncc(N2CCN(S(=O)(=O)c3ccc(Br)cc3)CC2)c(Cl)c1=O", "No"),
    ("O=c1c2c(nc3cc(-c4cccc(Cl)c4)[nH]n13)CCCC2", "Yes"),
]

Q. Fill in: this test's call for "O=C(/C=C/c1ccc2c(c1)OCO2)NCc1cn2cc(Cl)ccc2n1" is ___
A. No

Q. Fill in: this test's call for CN(C)c1cccc(C(=O)N2CCC(n3nccc3NC(=O)C3CCOC3)CC2)c1 (stereo unspecified) is ___
A. No

Q. Fill in: this test's call for "COc1c(F)c(F)c(-c2csc(N)n2)c(F)c1F" is ___
A. No

Q. Fill in: this test's call for "Cc1nc2nc(C)c(NS(=O)(=O)c3ccc(C(C)(C)C)cc3)c(=O)n2[nH]1" is ___
A. No

Q. Fill in: this test's call for "CC(C)n1cnc2c(NCc3ccccc3)cc(N[C@@H](CO)Cc3ccccc3)cc21" is ___
A. No

Q. Fill in: this test's call for "Cc1cccc(NC(=O)CSc2nc3c(c(=O)[nH]2)CCC3)c1C" is ___
A. No

* * *

inhibition reference
Target: Sentrin-specific protease 7 (Homo sapiens) (UniProt Q9BQF6)
Experiment: SENP7 protease inhibitors, primary screen, biochemical, luminescence, uHTS (AID 434973);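 note: plate controls were DMSO with enzyme for no effect and no enzyme buffer wells for full effect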
Details: recombinant SENP7, Z-RLRGG-aminoluciferin luminescence, 40 min; at 5 µM; active compounds read high
Hit rate of the full screen: of about 330,000 compounds, about 4,900 (1.5%) were called active. Shown is part of a subset that was picked to be rich in actives.
State just the number; it will be interpreted in %.

Q. Entry "COc1ccc(C(=O)Nc2ccc3nc(N4CCCCC4)cc(C)c3c2)cc1OC" has what inhibition?
A. -1.83

Q. Entry "COc1ccc(/C(C)=N/N2CCOCC2)c(O)c1" has what inhibition?
A. 9.39

Q. Entry "O=C(COC(=O)CNS(=O)(=O)c1ccc(F)c(F)c1F)NC1CCCC1" has what inhibition?
A. 4.55

Q. Entry "CS(=O)(=O)n1nc(-c2ccco2)nc1N" has what inhibition?
A. 3.45

Q. Entry "O=C(CC(O)(C(F)(F)F)C(F)(F)F)Nc1ccc(Cl)c(Cl)c1" has what inhibition?
A. 2.83

Q. Entry "CCCC(=O)Nc1nnc(CC(=O)OCC)s1" has what inhibition?
A. -2.16

Q. Entry CC1CCc2sc3nc(N4CCN(CCO)CC4)n4ncnc4c3c2C1 (centres undefined) has what inhibition?
A. -6.6

Q. Entry COc1cc(Cl)cc(C2NC(=O)NC(C)=C2C(=O)NCc2ccccc2)c1O (centres undefined) has what inhibition?
A. -4.23

Q. Entry "COc1ccccc1-c1nnc(-c2ccc(F)cc2)o1" has what inhibition?
A. 50.3

Q. Entry "Cc1ccc(-n2nc(-c3ccco3)cc2C(=O)NCc2cccnc2)cc1" has what inhibition?
A. 0.29

Q. Entry "Cc1ccc(Nc2nc(Cl)c(C=O)s2)cc1" has what inhibition?
A. 52.6

Q. Entry "Cc1[nH]n(C)c(=O)c1N=Nc1ccc(S(C)(=O)=O)cc1" has what inhibition?
A. 0

Q. Entry "COc1ccccc1-c1nc(C(F)(F)F)c(OC)o1" has what inhibition?
A. -6.4

Q. Entry CC(NC(=O)COC(=O)c1ccc2ccccc2n1)c1ccccc1 (centres undefined) has what inhibition?
A. -1.7

Q. Entry CC(NC(=O)c1ccco1)c1ccc2c(c1)OCO2 (centres undefined) has what inhibition?
A. 9

Q. Entry "Cn1c(-c2ccco2)nc2cc3ccccc3cc21" has what inhibition?
A. 98.5

Q. Entry "CN(C)S(=O)(=O)c1cc(C(=O)Nc2ccn(C)n2)c(Cl)cc1Cl" has what inhibition?
A. -0.713

Q. Entry "CCO/N=C(/C)c1c(O)cc(-c2ccccc2)n(-c2ccccc2)c1=O" has what inhibition?
A. 0.576

Q. Entry "CCOC(=O)N1CCN(C(=O)COc2ccc3oc4c(c3c2)CCCC4)CC1" has what inhibition?
A. -3.39

Q. Entry "Cc1cccc(/C(N)=N/OC(=O)c2ccccc2Cl)c1" has what inhibition?
A. 98.2

Q. Entry "CSc1ccccc1-c1nnc(-c2ccc(Cl)cc2)o1" has what inhibition?
A. 28.1

These measurements were taken from PubChem BioAssay AID434973.
